Attribute: koff
# measured on: T1, GPC3 (UniProt P51654 25-559, limits assumed)
# T1 construct: also called antigen GPC3; Glypican 3
# test: SPR as in Example 1 (Biacore T200; scFv-Fc captured, GPC3 in flow)

{"binder": "VL1.M7-VH2.M6 humanized scFv (scFv, not shown: a dimerising Fc or GST) scFv: DIVMTQTPLSLSVTPGQPASISCRSSQSLVHSNGNTYLHWYLQKPGQSPQLLIYKVSSRFSGVPDRFSGSGSGTDFTLKISRVEAEDVGVYYCSQGTHVPPTFGQGTKVEIKGGGGSGGGGSGGGGSQVQLVQSGAEVKKPGASVKVSCKASGYTFTSYEMHWVRQAPGQGLEWMGALDPKTGDTAYSQKFQGRVTLTADTSTSTVYMELSSLRSEDTAVYYCTRFYSYTYWGQGTLVTVSS", "koff / s⁻¹": 0.0034}
{"binder": "mouse anti-GPC3 GC33 scFv (VL-VH) (scFv, also called mouse scFv; not shown: C-terminal Fc tag (human Fc, used only for capture on the anti-human Fc chip) and any junction to it) scFv: DVVMTQTPLSLPVSLGDQASISCRSSQSLVHSNGNTYLHWYLQKPGQSPKLLIYKVSNRFSGVPDRFSGSGSGTDFTLKISRVEAEDLGVYFCSQNTHVPPTFGSGTKLEIKGGGGSGGGGSGGGGSQVQLQQSGAELVRPGASVKLSCKASGYTFTDYEMHWVKQTPVHGLKWIGALDPKTGDTAYSQKFKGKATLTADKSSSTAYMELRSLTSEDSAVYYCTRFYSYTYWGQGTLVTVSA", "koff / s⁻¹": 0.00021}
{"binder": "VL1.M2-VH2.M10 humanized scFv (scFv, not shown: a dimerising Fc or GST) scFv: DIVMTQTPLSLSVTPGQPASISCRSSQSLVHSNGNTYLHWYLQKPGQSPQLLIYKVSSRFSGVPDRFSGSGSGTDFTLKISRVEAEDVGVYYCSQNTHVPPTFGQGTKVEIKGGGGSGGGGSGGGGSQVQLVQSGAEVKKPGASVKVSCKASGYTFTSYEMHWVRQAPGQGLEWMGALDPSGGDTAYSQKFQGRVTLTADTSTSTVYMELSSLRSEDTAVYYCTRFYSYTYWGQGTLVTVSS", "koff / s⁻¹": 0.0005}
